test: E. coli acrAB mutant growth effects, primary screen, E. coli filamentation inducers, strain DRC39, OD650, 24 h (AID 1178); details: higher = more signal, called active from +8 up or from −8 down;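 further: growth measured as culture turbidity by optical density at 650 nm; test concentration not given here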
assay endpoint: z-score
// keep it numeric: no unit symbol after the value

-- ask Query: z-score; subject: `O=C1O[C@@H](c2ccccc2)[C@@H](c2ccccc2)N2[C@@H](c3ccc(O)cc3)[C@]3(C(=O)Nc4ccc(C#CC5(O)CCCCCC5)cc43)[C@@H](C(=O)NC[C@H](O)c3ccccc3)[C@H]12`
-- reply -0.839

-- ask Query: z-score; subject: `O=C(NCC(F)(F)F)[C@@H]1c2ccccc2C(=O)N(Cc2ccc(OC(F)(F)F)cc2)[C@H]1c1ccc(CO)cc1`
-- reply 0.504

-- ask Query: z-score; subject: `C=C(CCCC)/C(=C/C[C@@H](OC(=O)c1ccncc1)c1ccccc1OCCO)c1cnc2ccccc2c1`
-- reply -0.334

-- ask Query: z-score; subject: `COC(=O)[C@@]1(Cc2ccc(F)cc2)[C@H]2c3cc(C(=O)N(C)C)n(Cc4cc(F)cc5c4OCOC5)c3C[C@H]2CN1C(=O)c1ccccc1`
-- reply -0.462

-- ask Query: z-score; subject: CC(CO)N1C(=O)[C@@H]2[C@H]3C(=O)OCC=C[C@H]3OC23C=CCN(CCN2CCOCC2)C(=O)[C@@H]13 (some centres undefined)
-- reply -0.55

-- ask Query: z-score; subject: `COc1ccccc1CN1C(=O)c2ccccc2[C@](Cc2ccccc2I)(C(=O)NCC(F)(F)F)[C@@H]1c1ccc(CO)cc1`
-- reply -0.496

-- ask Query: z-score; subject: `COC(=O)[C@@]1(Cc2ccc(OC)cc2)[C@H]2c3cc(C(=O)N(C)C)n(Cc4ccc(Cl)c(C(F)(F)F)c4)c3C[C@H]2CN1C(=O)c1ccccc1`
-- reply -0.505

-- ask Query: z-score; subject: `CC(C)N1C(=O)c2ccccc2[C@@H](C(=O)NC2CC2)[C@@H]1c1ccc(CO)cc1`
-- reply 0.0426

-- ask Query: z-score; subject: C=C(C)C1CCC(C(O)C2C=CC3C(=O)N(C)C(=O)C3N2N2CCCCC2)CC1 (centres undefined)
-- reply -0.742

-- ask Query: z-score; subject: `C=CC[C@]1(C(=O)O)COC(c2ccc(OCCCO)cc2)=N1`
-- reply -0.353

-- ask Query: z-score; subject: `C=CCOC(=O)[C@H]1[C@@H]2C(=O)O[C@@H](c3ccccc3)[C@@H](c3ccccc3)N2[C@@H](c2ccc(OCCOC(=O)[C@@H]3C[C@@H]4C(=O)N5CCC[C@H]5C(=O)N4[C@@H]3c3ccc(O)cc3)cc2)[C@]12C(=O)Nc1ccc(I)cc12`
-- reply -0.102

-- ask Query: z-score; subject: CCCCC(O)C1C=CC2C(=O)N(c3ccccc3)C(=O)C2N1Nc1ccc(C(C)C)cc1 (centres undefined)
-- reply -0.622

-- ask Query: z-score; subject: `COC(=O)[C@@]1(Cc2ccc(OC)cc2)[C@H]2c3cc(C(=O)N4CCCC4)n(Cc4cccc5ccccc45)c3C[C@H]2CN1C(=O)c1ccccc1`
-- reply 0.24

-- ask Query: z-score; subject: COc1cc(OC)c(C(O)C2C=CC3C(=O)N(C)C(=O)C3N2NC(=O)OC(C)(C)C)cc1Br (centres undefined)
-- reply -0.143
